# subject of test: T1, Anti-CD28 Fab (SEQ ID NOs: 696, 697)
# T1 construct: Biotinylated and captured on neutravidin coated plates in the phage ELISA
# method summary: phage ELISA on anti-CD28 Fab plates; competitor CD28 antigen pre-incubated in the wells
# cutoff 0.09 applies to Phage binding ELISA, Anti-CD28 Fab signal in the presence of CD28; >= gives met, < gives not met

Please review the entries below; each comes with its answer.
[
  {
    "binder": "YCEGHTMEYMWKCL [Phage-542]",
    "class": "not met"
  },
  {
    "binder": "YCDGHEPQYMLKCL [Phage-540]",
    "class": "met"
  },
  {
    "binder": "YCEGHLPLYMWKCL [Phage-548]",
    "class": "not met"
  },
  {
    "binder": "YCDGHLPIYMAKCL [Phage-552]",
    "class": "met"
  }
]

-- ask Is the recorded value of Phage binding ELISA, Anti-CD28 Fab signal in the presence of CD28 equal to or greater than 0.09 for this binder? YCDGHLDEYMAKCL [Phage-546]
-- reply not met

-- ask Is the recorded value of Phage binding ELISA, Anti-CD28 Fab signal in the presence of CD28 equal to or greater than 0.09 for this binder? YCDGHSPQYIEKCL [Phage-544]
-- reply not met

-- ask Is the recorded value of Phage binding ELISA, Anti-CD28 Fab signal in the presence of CD28 equal to or greater than 0.09 for this binder? YCEGHSPEYMSKCL [Phage-541]
-- reply not met
